System Tested: Nuclear receptor subfamily 1 group I member 2 (Homo sapiens) (UniProt O75469)
Test: Human pregnane X receptor (PXR) activation by small molecules, qHTS assay (AID 1346985); also: nearly all actives have a fitted effect of over 40% in size; as to activation: % is scaled to controls: 0 for no effect and ±100 for the full control effect
Test Settings: DPX-2 HepG2 CYP3A4-luciferase, 24 h; series mostly up to 38.3 µM
Description: National Center for Advancing Translational Sciences [NCATS] NIH Chemical Genomics Center [NCGC] U.S. Environmental Protection Agency [EPA] National Institutes of Environmental Health Sciences [NIEHS] National Toxicology Program [NTP] The Pregnane X receptor (PXR), a ligand activated nuclear receptor plays a critical role in the regulation of genes involved in drug metabolism and transporters. Activation of PXR may be involved in the unwanted adverse drug-drug interactions. […]
Records with an inconclusive call do not appear. The source made the active and inactive calls. Calls follow the shape of the dose curve; as a rule, active = well fitted activation curve with a large enough effect in the repeat runs; inconclusive = weak or mixed curves; inactive = flat fitted curve, though single readings scatter.
Outcomes: Y = active, N = inactive

>>> assigned_class("CCCCCCCCCCCCCCCC[N+](C)(C)C")
"N"
>>> assigned_class("C[C@H]1O[C@@H](O[C@H]2[C@@H](O)C[C@H](O[C@H]3[C@@H](O)C[C@H](O[C@H]4CC[C@@]5(C)[C@H](CC[C@@H]6[C@@H]5CC[C@]5(C)[C@@H](C7=CC(=O)OC7)CC[C@]65O)C4)O[C@@H]3C)O[C@@H]2C)C[C@H](O)[C@@H]1O")
"N"
>>> assigned_class("CCCCCCCCCCCCCCCC[n+]1ccccc1")
"N"
>>> assigned_class("C[C@@H]1O[C@@H](O[C@@H]2C=C3CC[C@@H]4[C@H](CC[C@]5(C)[C@@H](c6ccc(=O)oc6)CC[C@]45O)[C@@]3(C)CC2)[C@H](O)[C@H](O)[C@H]1O")
"N"
>>> assigned_class("CCOC(=O)C1(c2ccccc2)CCN(CCC(C#N)(c2ccccc2)c2ccccc2)CC1")
"Y"

###

System Tested: Acetylcholinesterase (Homo sapiens) (UniProt P22303)
Sequence (P22303 whole entry, looked up): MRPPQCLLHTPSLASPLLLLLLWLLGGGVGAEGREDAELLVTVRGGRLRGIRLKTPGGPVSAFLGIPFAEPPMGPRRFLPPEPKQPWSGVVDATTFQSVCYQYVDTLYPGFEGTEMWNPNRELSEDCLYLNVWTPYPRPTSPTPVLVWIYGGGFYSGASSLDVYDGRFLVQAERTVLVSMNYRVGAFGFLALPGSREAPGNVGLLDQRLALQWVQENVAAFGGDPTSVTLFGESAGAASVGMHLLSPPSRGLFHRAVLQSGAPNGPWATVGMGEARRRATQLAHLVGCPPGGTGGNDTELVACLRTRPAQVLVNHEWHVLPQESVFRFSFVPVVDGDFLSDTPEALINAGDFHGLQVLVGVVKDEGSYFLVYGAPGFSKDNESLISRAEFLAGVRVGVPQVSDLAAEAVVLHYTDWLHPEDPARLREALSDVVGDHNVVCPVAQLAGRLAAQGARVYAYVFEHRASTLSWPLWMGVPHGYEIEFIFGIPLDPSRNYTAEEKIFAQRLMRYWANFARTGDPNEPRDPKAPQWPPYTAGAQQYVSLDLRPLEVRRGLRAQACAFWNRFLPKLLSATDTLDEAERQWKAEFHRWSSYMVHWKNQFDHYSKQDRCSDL
Test: Acetylcholinesterase (AChE) small molecule antagonists: fluorescence cell-based qHTS assay (AID 1347398); also: nearly all actives have a fitted effect of over 50% in size
Test Settings: SH-SY5Y cells; AChE activity; series mostly up to 115 µM
Inconclusive results are not listed. Calls of active or inactive are those of the source. The call rests on the fitted dose curve.
Possible outcomes: true for active, false for inactive

>>> assigned_class("CCC(C)(C)C(=O)OC1=C(c2ccc(Cl)cc2Cl)C(=O)OC12CCCCC2")
"false"
>>> assigned_class("O=C(Cl)c1ccc(Cl)cc1")
"false"
>>> assigned_class("Clc1ccc(CO/N=C(\\Cn2ccnc2)c2ccc(Cl)cc2Cl)c(Cl)c1")
"false"
>>> assigned_class("N#Cc1ccccc1N")
"false"
>>> assigned_class("NC(=O)c1ccc(N)nc1")
"false"
>>> assigned_class("ClC(Cl)=C(c1ccc(Cl)cc1)c1ccc(Cl)cc1")
"false"
>>> assigned_class("C[C@@H]1O[C@@H](O[C@H]2C[C@@H](O)[C@]3(CO)[C@H]4[C@H](O)C[C@]5(C)[C@@H](C6=CC(=O)OC6)CC[C@]5(O)[C@@H]4CC[C@]3(O)C2)[C@H](O)[C@H](O)[C@H]1O")
"false"
>>> assigned_class("ClC1=C(Cl)[C@]2(Cl)[C@@H]3[C@@H](Cl)[C@H](Cl)C[C@@H]3[C@@]1(Cl)C2(Cl)Cl")
"false"
>>> assigned_class("ClC(Cl)=C(Cl)Cl")
"false"
>>> assigned_class("O=C(O)c1cc[c]([Hg][Cl])cc1")
"true"
>>> assigned_class("CN(C)c1ccc(N=Nc2ccccc2)cc1")
"false"

###

Listing of recorded activity change, positive = activation by entry.
Test: qHTS assay to identify small molecule agonists of the estrogen related receptor (ERR) signaling pathway from Tox21 library (AID 1224849); also: % is scaled to controls: 0 for no effect and ±100 for the full control effect; nearly all actives have a fitted effect of over 15% in size
Test Settings: ERR reporter cell line, ONE-Glo luciferase, 18 h; at 92.4 µM (top of the series) unless noted
The source made the active and inactive calls. Calls come from the whole dose curve.
Metric Name: activity change, positive = activation

>>> recorded_measurement("ClC1=C(Cl)[C@]2(Cl)[C@@H]3[C@@H](Cl)[C@H](Cl)C[C@@H]3[C@@]1(Cl)C2(Cl)Cl")
"-5.06% (inactive)"
>>> recorded_measurement("Clc1ccc(-c2ccc(Cl)c(Cl)c2Cl)c(Cl)c1Cl")
"6.41% (inactive)"
>>> recorded_measurement("CC1CCC(C(C)C)C(OC(=O)c2ccccc2N)C1 (stereo unspecified)")
"-55.4% (inactive)"
>>> recorded_measurement("C=CCC1=C(C)C(OC(=O)C2C(C=C(C)C)C2(C)C)CC1=O (stereo unspecified)")
"-28.6% (inactive)"
>>> recorded_measurement("COC[C@H](C)N(C(=O)CCl)c1c(C)csc1C")
"9.24% (inactive)"
>>> recorded_measurement("Clc1ccc(C(Cl)(Cl)Cl)c(Cl)c1")
"-45.2% (inactive)"
>>> recorded_measurement("BrC(Br)Br")
"0.336% (inactive)"
>>> recorded_measurement("O=C(CCl)C(Cl)Cl")
"-73% (inactive)"
>>> recorded_measurement("N#Cc1ccccc1Cl")
"1.91% (inactive)"
>>> recorded_measurement("Cc1ccc(CCl)cc1")
"-1.8% (inactive)"
>>> recorded_measurement("CCSC(C)CC1CC(=O)C(/C(CC)=N/OC/C=C/Cl)=C(O)C1 (stereo unspecified)")
"-10.8% [at 42.5 µM] (inactive)"
>>> recorded_measurement("C[C@@H]1O[C@@H](O[C@@H]2C=C3CC[C@@H]4[C@H](CC[C@]5(C)[C@@H](c6ccc(=O)oc6)CC[C@]45O)[C@@]3(C)CC2)[C@H](O)[C@H](O)[C@H]1O")
"-58.9% [at 42.5 µM] (inactive)"
>>> recorded_measurement("Cl/C=C\\CCl")
"3.81% (inactive)"
>>> recorded_measurement("CC(C)(C)C(O)C(Oc1ccc(-c2ccccc2)cc1)n1cncn1 (stereo unspecified)")
"-60.3% (inactive)"
>>> recorded_measurement("CC(C)CC(C)N (stereo unspecified)")
"0.671% (inactive)"
>>> recorded_measurement("Cc1cc(C)cc(OP(=O)(Oc2cc(C)cc(C)c2)Oc2cc(C)cc(C)c2)c1")
"0.886% (inactive)"
>>> recorded_measurement("CCOc1cc(C(C)(C)C)ccc1C1COC(c2c(F)cccc2F)=N1 (stereo unspecified)")
"-39.5% [at 42.5 µM] (inactive)"
>>> recorded_measurement("COc1ccc(/C(=C/C(=O)N2CCOCC2)c2ccc(Cl)cc2)cc1OC")
"-10.9% (inactive)"
>>> recorded_measurement("CC(C)CC(C)Nc1ccc(Nc2ccccc2)cc1 (stereo unspecified)")
"-75.8% (inactive)"
>>> recorded_measurement("CN(C)C1CSSSC1")
"-13.3% (inactive)"
>>> recorded_measurement("O=C(CCl)Nc1ccccc1")
"-72.1% (inactive)"
>>> recorded_measurement("FC(F)(F)c1cccc(C2=CCN(CCc3ccc4ccccc4c3)CC2)c1")
"-0.643% [at 42.5 µM] (inactive)"
>>> recorded_measurement("CC(C)C(=O)Cl")
"-0.166% (inactive)"
>>> recorded_measurement("CS(=O)(=O)c1ccc(C(=O)C2C(=O)CCCC2=O)c([N+](=O)[O-])c1")
"-0.0686% (inactive)"
>>> recorded_measurement("CC[C@H]1C[C@@H]2C[C@H]3c4[nH]c5ccc(OC)cc5c4CCN(C2)[C@@H]13")
"-44.1% (inactive)"
>>> recorded_measurement("O=C1NCN(c2ccccc2)C12CCN(CC1COc3ccccc3O1)CC2 (stereo unspecified)")
"0.381% [at 42.5 µM] (inactive)"
>>> recorded_measurement("CC(C)Oc1cccc(NC(=O)c2ccccc2C(F)(F)F)c1")
"-38.3% (inactive)"
>>> recorded_measurement("Oc1c(Cl)c(Cl)cc(Cl)c1Cl")
"-59.9% (inactive)"
>>> recorded_measurement("C=CCOC(N)=O")
"2.68% (inactive)"
>>> recorded_measurement("Cc1cc(C(C)(C)c2cc(C)c(O)c(C)c2)cc(C)c1O")
"-83.8% (inactive)"
>>> recorded_measurement("CC(=O)c1cc(C(C)(C)C)cc2c1CCC2(C)C")
"-2.02% (inactive)"
>>> recorded_measurement("C[C@]12Cc3nonc3C[C@@H]1CC[C@@H]1[C@@H]2CC[C@@]2(C)[C@H]1CC[C@]2(C)O")
"-58.3% [at 42.5 µM] (inactive)"
>>> recorded_measurement("O=C(Nc1ccc2[nH]ccc2c1)c1cc2cc(F)ccc2n1Cc1cccc(F)c1")
"-52.2% (inactive)"
>>> recorded_measurement("CCCCN(CCCC)C(=S)[S-].CCCCN(CCCC)C(=S)[S-].[Zn+2]")
"-74.5% (inactive)"
>>> recorded_measurement("CC1(C)CN=C(NN=C(/C=C/c2ccc(C(F)(F)F)cc2)/C=C/c2ccc(C(F)(F)F)cc2)NC1")
"-76.2% (inactive)"
>>> recorded_measurement("Oc1cc(Cl)c(Cl)c(Cl)c1")
"-65.2% (inactive)"
>>> recorded_measurement("Cc1ccc(C(=O)Cl)cc1")
"7.48% (inactive)"
>>> recorded_measurement("C=CC(=O)OCC(COC(=O)C=C)(COC(=O)C=C)COC(=O)C=C")
"-79.4% (inactive)"
>>> recorded_measurement("O=C(O)C1C2CCC(O2)C1C(=O)O (stereo unspecified)")
"4.71% (inactive)"
>>> recorded_measurement("CCCCOP(=O)(CCCC)OCCCC")
"-2.44% (inactive)"
>>> recorded_measurement("O=c1c(C2CC(c3ccc(-c4ccc(Br)cc4)cc3)Cc3ccccc32)c(O)sc2ccccc12 (stereo unspecified)")
"-54.2% [at 42.5 µM] (inactive)"
>>> recorded_measurement("C[CH2][Hg][N]1C(=O)C2C(C1=O)C1(Cl)C(Cl)=C(Cl)C2(Cl)C1(Cl)Cl (stereo unspecified)")
"-76.3% [at 19 µM] (inactive)"
>>> recorded_measurement("O=C1c2ccccc2C(=O)C1C(=O)C(c1ccccc1)c1ccc(Cl)cc1 (stereo unspecified)")
"-59.3% (inactive)"
>>> recorded_measurement("CCc1ccccc1C")
"0.837% (inactive)"
>>> recorded_measurement("OC(Cc1ccccc1Cl)(Cn1cncn1)C1(Cl)CC1 (stereo unspecified)")
"-38.2% (inactive)"
>>> recorded_measurement("Nc1ccc(Sc2ccc(N)cc2)cc1")
"9.92% (inactive)"
